Items are presented alongside their recorded melting point.

So, CC(=O)OC1C(COC(=O)c2ccccc2)OC(n2cc(Cl)c(N)nc2=O)C1F (stereo not given) ? Its melting point was 233 °C

// recorded melting point for O=C(NCCCc1ccncc1)N(CCCC12CC3CC(CC(C3)C1)C2)CC(F)(F)F : 88.9 to 90 °C

Note to self: melting point recorded for CC(O)(C(=O)Nc1ccc(S(=O)(=O)c2ccccc2)cc1)C(F)(F)F (stereo not given) was 164 to 166 °C

Now look at this one.
// melting point lookup, molecule = O=c1c2c(Cl)cccc2nc(C(S)c2ncnc3[nH]cnc23)n1-c1ccccc1F (stereo not given) , result: 244 °C

---

Catalogue of molecules with associated melting point

Examples with answers:
Given item C=C1CCCC2(C)C1=CC(=O)C1C3CCC(=O)C3(C)CCC12 (stereo not given) , the value recorded as its melting point is 132 °C

Value of melting point reported for the molecule COc1ccc(OC)c(OCCCCl)c1 is 48 to 50 °C

Kindly note the recorded melting point for Nc1ncc(-c2cccc3ccccc23)c(N)n1 , which is 171 to 173 °C

Noted for COc1cccc(-c2csc(-c3cccc([N+](=O)[O-])c3)n2)c1 : its melting point reads 122 to 123 °C

melting point measured on O=C1Cc2cc3c(CCC4CCN(Cc5ccccc5)CC4)noc3cc2N1 = 118 to 119 °C

Further cases:
Note to self: melting point recorded for O=c1c2cnc3ccccc3c2on1-c1ccccc1 was 163 °C

According to the records, this molecule CC(=O)OC1N=C(c2ccccc2)c2cc(Cl)ccc2-n2c1cnc2C (stereo not given) displays melting point of 200 to 201 °C

Input CCCn1c(=O)c2[nH]c(/C=C/c3cccc([N+](=O)[O-])c3)nc2n(CCC)c1=O . Output melting point: 256 to 257 °C

Looking up CN(CCc1ccc(O)cc1)[C@H]1CC[C@H](c2ccccc2)CC1 , I see its melting point listed as 97 to 105 °C

melting point measured on Cc1nc2c(O)c(CCC(=O)c3ccc(F)cc3)c(C(=O)N(C)C)cc2n1C = 248 to 249 °C

Per the record, CCCNC(=O)c1nc(C)ccc1C(=O)Nc1c(Cl)ccc(C)c1C#N has melting point of 129 to 131 °C

Reported melting point for Cc1ccccc1-c1nc2c(s1)C(S(=O)(=O)Cc1ccccc1)Cc1c(OCC(=O)O)cccc1-2 (stereo not given) was 192 to 193 °C

melting point in this record for CC1(C)C2CC=C(c3ccc(C(=O)N4Cc5cccn5Cc5ccccc54)cc3)C1C2 (stereo not given) : 118 to 119 °C

molecule O=C(CC1CCNCC1)Nc1cccc(-c2ccnc3c(C(=O)c4cccs4)cnn23)c1 , melting point observed: 216 to 220 °C

The recorded melting point for Cc1c(F)cccc1Cc1c(-c2ccccc2)c2cccnn2c1C(=O)N1CCNCC1 is 140 to 142 °C

Lookup result for COc1cc2c(cc1OC)C(Oc1ccc(C(F)(F)F)cc1)CN(CC#N)CC2 (stereo not given) ; measured melting point: 93 to 94 °C

The molecule C#CCn1c(=O)n(C2CCN(C(=O)OCC)CC2)c2ccc(Cl)cc21 showed melting point equal to 126 °C

Item: COc1cc2cc(C(=O)OCc3ccccc3)n(CC(=O)OC(C)(C)C)c2cn1 | melting point: 110 °C

Record CC(C)c1cccc(C(C)C)c1NC(=O)CC(=O)c1ccccc1 . Reported melting point: 124 to 126 °C

melting point in this record for CSCc1cn(C)c2ccc(C)cc2c1=O : 142 to 143 °C

---

measure name: melting point

Kindly note the recorded melting point for COc1ccc(C(C(Br)c2ccc(F)cc2)C(F)(F)F)cc1 (stereo not given) , which is 73 to 94 °C

***
The compound listed as COc1ccc2c3c(c4cc(OC)c(OC)cc4c2c1)C[C@H](CO)N(C(=O)OC(C)(C)C)C3 has a reported melting point of 105 to 107 °C

Item: CN(C)c1cccc(NC(=O)c2cccc(S(=O)(=O)N3CCCCCC3)c2)c1 | melting point: 178 to 180 °C

---

melting point overview

According to the records, this compound O=C1CCCc2ccc(OCCCCN3CCN(c4cccc5c4OCCC5)CC3)nc2N1 displays melting point of 186 to 187 °C

Entry CN(C)c1ccc(C=CC(=O)c2ccc3c(c2)CCC3)cc1 — recorded melting point = 106 to 108 °C

# compound CCCCCCCCCCCCCCCCCCOc1cccc(C(=O)OC)c1OCCCOc1ccc(OCc2ccccc2)cc1 ; its melting point = 43 to 45 °C

---

measure name: melting point

For orientation, consider the following solved cases.
// field: melting point; key: CC(C)OC(=O)c1cc(N)n(C)n1 ; value = 86 to 87 °C

Sample Cc1c(NC(=O)c2c(C(=O)N3CCC3)cnn2C)ccn2nc(-c3ccccc3)nc12 ; melting point observed: 243 to 245 °C

Looking up Cc1cc(N)c(C(=O)OC(C)C)cc1Oc1ccc(OC(F)(F)F)cc1 , I found its melting point recorded as 71 to 72 °C

CN(CCCC(C(N)=O)(c1ccccc1)c1ccccc1)CCc1ccc(CN)cc1 has a reported melting point of 139 to 142 °C

Continuing:
Consider CC(=O)c1ccc(OCCCCCCCc2cc(C)no2)cc1 . Its measured melting point is 69 to 71 °C

# molecule COc1cc2c(cc1C(F)(F)F)N(C(=O)Nc1ccc3c(ccn3Cc3cccnc3)c1)CC2 ; its melting point = 243 to 246 °C

// melting point value for CSc1c(C)[nH]c2cccc([N+](=O)[O-])c12 : 148 to 150 °C

get_value(item= O=[N+]([O-])c1ccccc1NC1CCCCC1 , readout=melting point) returns 105 to 107 °C

CCOC(=O)C(C(=O)OCC)=C1CSC2=C1SCCNC2 has a reported melting point of 87 to 89 °C

The reported melting point of the molecule CC1(C)SC2C(N3C(=O)c4ccccc4C3=O)C(=O)N2C1C(=O)OCc1ccc([N+](=O)[O-])cc1 (stereo not given) was 233 to 234 °C

---

Catalogue of melting point readings, one per entry.

Recorded melting point, per entry:
Per the records, this compound ( COc1ccc(/C=C/C(=O)Nc2ccccc2)cc1OC ) has melting point equal to 131 to 133 °C

So, O=C(Nc1cc(C(=O)O)cc(C(=O)O)c1)Oc1ccccc1 ? Its melting point was > 300 °C

Record NC(=O)c1nc(-c2cccc(O)c2)nc2c1[nH]c(=O)n2-c1ccc(Cl)cc1Cl , field melting point: 375 to 377 °C

melting point reading for CCc1c(OC)nc2nc(C(=N)NO)cn2c1C : 249 to 250 °C

For this compound ( Cc1ccnc(NC(=O)c2ccn3c2CSC3c2cccnc2)c1 (configuration not stated) ), measured melting point is 163 °C

// sample CN1C(C(=O)Nc2nc3ccccc3s2)=C(O)c2ccc3ccccc3c2S1(=O)=O , its melting point was 262 °C

compound CCOc1ccccc1NC(N)=S , melting point observed: 174 °C

Item: CCCCN(Cc1ccc(-c2ccccc2-c2nnn[nH]2)cc1)c1nc(C)ccc1C(=O)O | melting point: 175 to 177 °C

According to the records, this compound CCOP(=O)(CCCOc1ccc2c(c1)c(CC(N)=O)c(C)n2Cc1ccccc1)OCC displays melting point of 106 to 111 °C

Entry under test: O=C(O)c1cc(SCc2ccccc2)c(-c2ccccc2)c([N+](=O)[O-])c1 . Its melting point was 188 to 189 °C

Others:
Note to self: melting point recorded for CC(=O)C1CCC2C3CCC4CC(O)C(N5CCOC(C)(C)C5)CC4(C)C3CCC12C (configuration not stated) was 174 to 176 °C

melting point in this record for COC(=O)C1Cc2c([nH]c3ccccc23)C(C)N1C(=S)SC (configuration not stated) : 229 to 230 °C

Quick note, melting point for CC=CCN(CCC12CC3CC(CC(C3)C1)C2)C(=O)NCCCc1ccncc1 landed at 89.5 to 93.5 °C

The compound listed as CCc1nn(C(C)C)c2cc(C(=O)Nc3c(Cl)cncc3Cl)ccc12 has a reported melting point of 145 to 148 °C

Data point: O=C(O)c1cccc(Cc2c[nH]cn2)c1O ; melting point = 245 to 252 °C

Briefly, melting point measured for Cc1cc2[nH]c(=O)c(C(=O)O)c(-c3ccccc3C)c2cc1C : 236 to 237 °C

What the record says about C=Cc1c(N=C2NCCN2)cccc1OC : melting point is 126 °C

The value of melting point measured for the compound OC(CN1CCCC1)c1cc(C(F)(F)F)nc2c(C(F)(F)F)cccc12 (configuration not stated) turned out to be 92 to 94 °C

The recorded melting point for Cn1cccc1-c1cc2cccnc2[nH]1 is 183 °C

The reported value for O=C1c2cccc3c([N+](=O)[O-])c(O)cc(c23)C(=O)N1O in terms of melting point is 267 to 270 °C

The compound listed as CC1(C)OC(=O)[C@@H](CC=O)O1 shows melting point equal to 37 to 38 °C

Reported melting point of C=CC(=O)NCCCCCCCCOc1ccccc1 : 45 to 47 °C

Hey, just so you know, these numbers are from a melting point compilation (Tetko et al.; mined from patent text by program, amines drawn as free bases though some values may be those of a salt).
